Target: T1, IL10Rα/IL2Rγ receptor (human, UniProt Q13651 22-578; P31785 23-369)
T1 sequence (looked up) 1: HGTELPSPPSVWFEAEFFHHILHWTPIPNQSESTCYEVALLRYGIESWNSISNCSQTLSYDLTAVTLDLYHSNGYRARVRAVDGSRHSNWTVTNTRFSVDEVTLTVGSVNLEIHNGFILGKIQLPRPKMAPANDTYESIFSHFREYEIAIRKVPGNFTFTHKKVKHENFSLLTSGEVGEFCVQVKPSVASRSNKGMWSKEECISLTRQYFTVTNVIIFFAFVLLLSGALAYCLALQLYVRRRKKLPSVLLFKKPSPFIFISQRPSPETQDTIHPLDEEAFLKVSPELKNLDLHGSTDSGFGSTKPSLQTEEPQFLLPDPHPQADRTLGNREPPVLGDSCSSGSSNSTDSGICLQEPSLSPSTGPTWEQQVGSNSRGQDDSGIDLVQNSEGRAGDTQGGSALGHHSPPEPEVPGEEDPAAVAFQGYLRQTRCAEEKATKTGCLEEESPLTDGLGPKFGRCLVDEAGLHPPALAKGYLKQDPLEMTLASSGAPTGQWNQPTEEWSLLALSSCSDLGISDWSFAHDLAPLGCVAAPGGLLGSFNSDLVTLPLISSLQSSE
T1 sequence (looked up) 2: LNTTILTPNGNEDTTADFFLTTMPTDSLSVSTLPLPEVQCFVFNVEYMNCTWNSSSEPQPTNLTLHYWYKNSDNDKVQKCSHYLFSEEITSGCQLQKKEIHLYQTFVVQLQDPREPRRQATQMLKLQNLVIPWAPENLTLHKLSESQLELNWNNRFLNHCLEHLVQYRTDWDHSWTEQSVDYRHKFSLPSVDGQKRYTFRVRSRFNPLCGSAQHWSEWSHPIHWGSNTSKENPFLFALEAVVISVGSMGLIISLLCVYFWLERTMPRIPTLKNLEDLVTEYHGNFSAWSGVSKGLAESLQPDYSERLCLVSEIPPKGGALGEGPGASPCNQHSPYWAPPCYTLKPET
Assay: cell-based or functional assay
measured-endpoint: pSTAT3 MFI, CD4+ T cells, 100 nM (unstimulated 1778) (MFI)
Only the number, expressed in MFI, is required.

## Input Query: pSTAT3 MFI, CD4+ T cells, 100 nM (unstimulated 1778); subject: DR444(DR236-DR234) (bispecific antibody) QVQLQESGGGSVQAGGSLRLSCAASRFTYSSYCMGWFRQAPGKEREGVASIDSDGSTSYTDSVKGRFTISKDNAKNTLYLQMNSLKPEDTAMYYCALDLMSTVVPGFCGFLLSAGMDYWGKGTQVTVSSGGGSQVQLQESGGGSVQAGGSLRLSCVASGYTFSSYCMGWFRQAPGKEREGVAALGGGSTYYADSVKGRFTISQDNAKNTLYLQMNSLKPEDTAMYYCAAAWVACLEFGGSWYDLARYKHWGQGTQVTVSSASHHHHHH
## Output 3700

## Input // next record DR468(DR240-DR234) (bispecific antibody) QVQLQESGGGSVQAGGSLRLSCGASGYTYSSYCMGWFRQVPGKEREGVAVIDSDGSTSYADSVKGRFTISKDNGKNTLYLQMNSLKPEDTAMYYCAADLGHYRPPCGVLYLGMDYWGKGTQVTVSSGGGSQVQLQESGGGSVQAGGSLRLSCVASGYTFSSYCMGWFRQAPGKEREGVAALGGGSTYYADSVKGRFTISQDNAKNTLYLQMNSLKPEDTAMYYCAAAWVACLEFGGSWYDLARYKHWGQGTQVTVSSASHHHHHH
## Output 3520

## Input Input DR466(DR240-DR232) (bispecific antibody) QVQLQESGGGSVQAGGSLRLSCGASGYTYSSYCMGWFRQVPGKEREGVAVIDSDGSTSYADSVKGRFTISKDNGKNTLYLQMNSLKPEDTAMYYCAADLGHYRPPCGVLYLGMDYWGKGTQVTVSSGGGSQVQLQESGGGSVQAGGSLRLSCVASGYTSCMGWFRQAPGKEREAVATIYTRGRSIYYADSVKGRFTISQDNAKNTLYLQMNSLKPEDIAMYSCAAGGYSWSAGCEFNYWGQGTQVTVSSASHHHHHH
## Output 3170
